# target system: T1, PACAP-R3 (human, UniProt P41587 24-438)
# T1 sequence (looked up): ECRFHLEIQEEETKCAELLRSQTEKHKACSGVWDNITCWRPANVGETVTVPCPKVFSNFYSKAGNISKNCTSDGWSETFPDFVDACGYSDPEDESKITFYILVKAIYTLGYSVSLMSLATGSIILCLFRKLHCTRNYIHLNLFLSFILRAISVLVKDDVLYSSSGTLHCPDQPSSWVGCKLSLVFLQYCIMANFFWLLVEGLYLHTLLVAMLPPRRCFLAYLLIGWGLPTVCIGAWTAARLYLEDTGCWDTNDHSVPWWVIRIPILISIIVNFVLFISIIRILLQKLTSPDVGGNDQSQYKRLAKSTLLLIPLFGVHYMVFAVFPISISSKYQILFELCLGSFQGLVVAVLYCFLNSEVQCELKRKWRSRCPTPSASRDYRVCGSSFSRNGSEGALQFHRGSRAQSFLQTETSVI
# assay notes: cell-based or functional assay
For each entry below, report its R3 EC50 value.
Answers are plain numbers, in nM.

1) HSDAVFTDNYTRLRKQMANKKYLNSIKNKR [R3P107] = 200
2) HSDAVFTDNYTRLRKQVAVKKYLQSIKKKR [R3P80] = 0.44
3) HSDAVFTDNYTRLRKQLAAKKYLNSIKKGGT [R3P22] = 1.6

Batch request: R3 EC50 for each of the following binders.
1. HSDAVFTDNYTRLRKQLAVKKYLNDILKGGT [R3P28]
2. HSDAVFTDNYTRLRKQVAAKKYLQSIKNKRY [R3P66]
3. HSDAVFTDNYTRLRKQLAVKKYLNSILN [R3P46]
4. HSDAVFTDNYTRLRKQVAAKKYLQSILNKRY [R3P92]
5. HSDGIFTDSYSRYRKQLAAKKYLADVKK [R3P38]

Data returned:
[7, 0.4, 0.06, 0.02, 2.3]

Could I get R3 EC50 for every one of these entries?
1. HSDAVFTENYTKLRKQLAAKKYLNDLLNGGT [R3P10]
2. HSDAVFTDNYTRLRKQMAPKKYLNSIKNKR [R3P108]

Data returned:
1. 11
2. 300
